System: Raji
Experiment: Antiproliferative activity against human Raji cells assessed as reduction in cell viability measured after 6 days by MTT assay
Type: functional, cell-based
Details: 144 h
# note: boundary value 1 µM maps to N; IC50 below it maps to Y

compound | answer_label
O=C1CC2OCC(OCc3ccccc3)C(O1)C2OCc1ccccc1 (stereo not drawn) | Y
O=C1C=C[C@@H](OCc2ccccc2)[C@@H]([C@@H](COC(=O)/C=C/c2ccccc2)OCc2ccccc2)O1 | N
COc1cccc(C(=O)OC[C@@H](OC(=O)c2cccc(OC)c2)[C@H]2OC(=O)C=C[C@H]2OC(=O)c2cccc(OC)c2)c1 | N
CC(=O)OC[C@@H](OCc1ccccc1)[C@H]1OC(=O)C=C[C@H]1OCc1ccccc1 | N
COc1ccc(/C=C/C(=O)OC[C@@H](OCc2ccccc2)[C@H]2OC(=O)C=C[C@H]2OCc2ccccc2)cc1 | Y
CC(=O)O[C@@H]1C=CC(=O)O[C@@H]1[C@@H](COC(=O)c1ccc(Cl)cc1)OC(C)=O | N
CO[C@H]1CC(=O)O[C@H]([C@@H](COC(=O)/C=C/c2ccc([N+](=O)[O-])cc2)OC(C)=O)[C@@H]1OC(C)=O | N
COc1ccc(/C=C/C(=O)OC[C@@H](OC(C)=O)[C@H]2OC(=O)C=C[C@H]2OC(C)=O)cc1 | N

====

Test system: HL-60
Test: Antiproliferative activity against human HL-60 cells assessed as reduction in cell viability measured after 6 days by MTT assay
Type: functional, cell-based
Details: HL-60, 144 h

line_notation | IC50
O=C1C=C[C@@H](OCc2ccccc2)[C@@H]([C@@H](COC(=O)/C=C/c2ccccc2)OCc2ccccc2)O1 | 0.61 µM
COc1cccc(C(=O)OC[C@@H](OC(=O)c2cccc(OC)c2)[C@H]2OC(=O)C=C[C@H]2OC(=O)c2cccc(OC)c2)c1 | 6.21 µM
O=C1C=C[C@@H](OCc2ccccc2)[C@@H]([C@@H](COC(=O)/C=C/c2ccc([N+](=O)[O-])cc2)OCc2ccccc2)O1 | 2.53 µM
O=C1C=C[C@@H](OC(=O)c2ccccc2)[C@@H]([C@@H](COC(=O)c2ccccc2)OC(=O)c2ccccc2)O1 | 8.25 µM

====

Test system: HL-60
Assay: Antiproliferative activity against human HL-60 cells assessed as reduction in cell viability measured after 6 days by MTT assay
Type: functional, cell-based
Details: HL-60, 144 h
pIC50: −log10 of the molar value.
outcome_measure: pIC50

compound | measurement
O=C1C=C[C@@H](OCc2ccccc2)[C@@H]([C@@H](CO)OCc2ccccc2)O1 | 4.99
O=C1CC2OCC(OCc3ccccc3)C(O1)C2OCc1ccccc1 (stereo not drawn) | 5.46
CC(=O)O[C@@H]1C=CC(=O)O[C@@H]1[C@@H](COC(=O)/C=C/c1ccc(F)cc1)OC(C)=O | 5.72
CC(=O)O[C@@H]1C=CC(=O)O[C@@H]1[C@@H](COC(=O)/C=C/c1ccc([N+](=O)[O-])cc1)OC(C)=O | 5.39
CC(=O)O[C@@H]1C=CC(=O)O[C@@H]1[C@@H](COC(=O)c1ccc(Cl)cc1)OC(C)=O | 4.49
CC(=O)O[C@@H]1C=CC(=O)O[C@@H]1[C@@H](COC(=O)c1ccc([N+](=O)[O-])cc1)OC(C)=O | 5.95
CC(=O)OC[C@@H](OC(C)=O)[C@H]1OC(=O)C=C[C@H]1OC(C)=O | 4.53
COc1ccc(/C=C/C(=O)OC[C@@H](OCc2ccccc2)[C@H]2OC(=O)C=C[C@H]2OCc2ccccc2)cc1 | 5.80
CO[C@H]1CC(=O)O[C@H]([C@@H](COC(=O)/C=C/c2ccc([N+](=O)[O-])cc2)OC(C)=O)[C@@H]1OC(C)=O | 5.51
COc1ccc(/C=C/C(=O)OC[C@@H](OC(C)=O)[C@H]2OC(=O)C=C[C@H]2OC(C)=O)cc1 | 5.00
O=C1C=C[C@@H](OCc2ccccc2)[C@@H]([C@@H](COC(=O)/C=C/c2ccc(F)cc2)OCc2ccccc2)O1 | 5.27
O=C1CC2OCC(O)C(O1)C2O (stereo not drawn) | 5.79
CC(=O)OC[C@@H](OCc1ccccc1)[C@H]1OC(=O)C=C[C@H]1OCc1ccccc1 | 5.03

====

Recorded pIC50, one value per entry.
System: Raji
Assay: Antiproliferative activity against human Raji cells assessed as reduction in cell viability measured after 6 days by MTT assay
Type: functional, cell-based
Details: 144 h
pIC50: −log10 of the molar value.

molecule | pIC50
CC(=O)O[C@@H]1C=CC(=O)O[C@@H]1[C@@H](COC(=O)c1ccc([N+](=O)[O-])cc1)OC(C)=O | 4.73
O=C1C=C[C@@H](OCc2ccccc2)[C@@H]([C@@H](COC(=O)/C=C/c2ccc(F)cc2)OCc2ccccc2)O1 | 5.61
CC(=O)OC[C@@H](OC(C)=O)[C@H]1OC(=O)C=C[C@H]1OC(C)=O | 5.00
O=C1CC2OCC(O)C(O1)C2O (stereo not given) | 5.09
CC(=O)O[C@@H]1C=CC(=O)O[C@@H]1[C@@H](COC(=O)/C=C/c1ccc(F)cc1)OC(C)=O | 5.64

====

System: Raji
Experiment: Antiproliferative activity against human Raji cells assessed as reduction in cell viability measured after 6 days by MTT assay
Format: functional, cell-based
Conditions: 144 h
Recorded IC50, one value per entry.
outcome_measure: IC50 (nM)

line_notation | measurement
O=C1C=C[C@@H](OCc2ccccc2)[C@@H]([C@@H](CO)OCc2ccccc2)O1 | 10
O=C1C=C[C@@H](OCc2ccccc2)[C@@H]([C@@H](COC(=O)/C=C/c2ccc([N+](=O)[O-])cc2)OCc2ccccc2)O1 | 140
CC(=O)O[C@@H]1C=CC(=O)O[C@@H]1[C@@H](COC(=O)/C=C/c1ccc([N+](=O)[O-])cc1)OC(C)=O | 2750
O=C1C=C[C@@H](OC(=O)c2ccccc2)[C@@H]([C@@H](COC(=O)c2ccccc2)OC(=O)c2ccccc2)O1 | 1080

====

System: MDA-MB-231
Experiment: Antiproliferative activity against human MDA-MB-231 cells assessed as reduction in cell viability measured after 6 days by MTT assay
Format: functional, cell-based
Settings: MDA-MB-231, 144 h
pIC50: −log10 of the molar value.
Tick 1 (yes) if pIC50 is 5 or greater. Tick 0 (no) if pIC50 is less than 5.

compound | subject_of_test | answer_label
O=C1CC2OCC(O)C(O1)C2O (configuration not stated) | MDA-MB-231 | 0 (no)
COc1cccc(C(=O)OC[C@@H](OC(=O)c2cccc(OC)c2)[C@H]2OC(=O)C=C[C@H]2OC(=O)c2cccc(OC)c2)c1 | MDA-MB-231 | 1 (yes)
O=C1CC2OCC(OCc3ccccc3)C(O1)C2OCc1ccccc1 (configuration not stated) | MDA-MB-231 | 1 (yes)
COc1ccc(/C=C/C(=O)OC[C@@H](OC(C)=O)[C@H]2OC(=O)C=C[C@H]2OC(C)=O)cc1 | MDA-MB-231 | 0 (no)
O=C1C=C[C@@H](OCc2ccccc2)[C@@H]([C@@H](COC(=O)/C=C/c2ccccc2)OCc2ccccc2)O1 | MDA-MB-231 | 1 (yes)
CC(=O)O[C@@H]1C=CC(=O)O[C@@H]1[C@@H](COC(=O)c1ccc(Cl)cc1)OC(C)=O | MDA-MB-231 | 1 (yes)
O=C1C=C[C@@H](OCc2ccccc2)[C@@H]([C@@H](COC(=O)/C=C/c2ccc([N+](=O)[O-])cc2)OCc2ccccc2)O1 | MDA-MB-231 | 1 (yes)
CC(=O)O[C@@H]1C=CC(=O)O[C@@H]1[C@@H](COC(=O)c1ccc([N+](=O)[O-])cc1)OC(C)=O | MDA-MB-231 | 1 (yes)
CC(=O)OC[C@@H](OCc1ccccc1)[C@H]1OC(=O)C=C[C@H]1OCc1ccccc1 | MDA-MB-231 | 1 (yes)
O=C1C=C[C@@H](OCc2ccccc2)[C@@H]([C@@H](COC(=O)/C=C/c2ccc(F)cc2)OCc2ccccc2)O1 | MDA-MB-231 | 1 (yes)
O=C1C=C[C@@H](OCc2ccccc2)[C@@H]([C@@H](CO)OCc2ccccc2)O1 | MDA-MB-231 | 1 (yes)
COc1ccc(/C=C/C(=O)OC[C@@H](OCc2ccccc2)[C@H]2OC(=O)C=C[C@H]2OCc2ccccc2)cc1 | MDA-MB-231 | 1 (yes)
CC(=O)O[C@@H]1C=CC(=O)O[C@@H]1[C@@H](COC(=O)/C=C/c1ccc([N+](=O)[O-])cc1)OC(C)=O | MDA-MB-231 | 1 (yes)
CO[C@H]1CC(=O)O[C@H]([C@@H](COC(=O)/C=C/c2ccc([N+](=O)[O-])cc2)OC(C)=O)[C@@H]1OC(C)=O | MDA-MB-231 | 0 (no)
CC(=O)O[C@@H]1C=CC(=O)O[C@@H]1[C@@H](COC(=O)/C=C/c1ccc(F)cc1)OC(C)=O | MDA-MB-231 | 0 (no)
O=C1C=C[C@@H](OC(=O)c2ccccc2)[C@@H]([C@@H](COC(=O)c2ccccc2)OC(=O)c2ccccc2)O1 | MDA-MB-231 | 0 (no)
